Taken from the supplement of paper PMC10567573.

B1: KRT13 (parent)
chain: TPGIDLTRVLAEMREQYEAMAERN

Variants of: B1
Experiment: protein stability index of a GFP-peptide fusion (GPS, HEK-293T) (PSI 1-6); higher = more stable;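 further: lentivirally expressed fusions sorted by FACS into six bins by GFP to DsRed ratio, PSI derived from sequencing read proportions per bin multiplied by bin number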
Details: c terminus: a fixed tail appended
Decision: protein stability index >= 4 yields True, all other cases yield False.

Before answering, review these 5 worked examples.
> print(dat)
   mutation  category.label
1       T7V           False
2      L10Q            True
3      R14L           False
4      M20P            True
5      N24D            True

q: Evaluate `A19Y` : protein stability index at minimum 4?
a: False

q: For this variant, is measured protein stability index 4 or higher? `E18F`
a: False

q: In plain terms: is recorded protein stability index at least 4 for `M13D` ?
a: True

q: hey, is protein stability index for this one >= 4? `L6V`
a: False

q: Has `E22I` a recorded protein stability index greater than or equal to 4?
a: False

q: Decide: protein stability index of `A11L` >= 4?
a: False

q: Hello, I need to know if `T1V` has measured protein stability index not below 4. Thanks!
a: False

q: Decide: protein stability index of `D5P` >= 4?
a: True

q: Kindly determine if protein stability index recorded for `E22Y` is above or exactly 4.
a: False

q: Is the recorded value of protein stability index equal to or greater than 4 for this variant? `E15L`
a: False

q: Form field: protein stability index at least 4? Entry: `E15D`
a: True

q: Could you tell me if the measured protein stability index of `E22T` reaches 4 or more?
a: False

q: Can `T7I` be said to have protein stability index at or above 4?
a: False
